Listing: Kd of selected compounds
systemUnderTest: GDP-bound KRAS wild-type protein (Homo sapiens, UniProt P01116)
Sequence (P01116 whole entry): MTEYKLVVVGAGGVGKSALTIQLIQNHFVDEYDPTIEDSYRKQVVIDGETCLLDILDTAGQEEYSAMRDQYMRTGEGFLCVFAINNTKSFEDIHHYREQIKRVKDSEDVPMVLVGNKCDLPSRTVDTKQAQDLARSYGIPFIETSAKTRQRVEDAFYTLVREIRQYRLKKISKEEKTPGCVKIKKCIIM
methodNotes: Binding to KRAS by surface plasmon resonance (SPR), Single Cycle Kinetics
measurementSetup: SPR, Single Cycle Kinetics, GDP-bound KRAS wild-type protein; read-out: KRAS KD
measuredEndpoint: Kd (nM)

smilesStr	measuredEndpoint	recordedResult
CC[C@H](C)[C@@H]1NC(=O)[C@@H]2CCCCc3ccc(cc3)C[C@@H](C(=O)N(C)CC(=O)N[C@@H](CCc3ccc(C(F)(F)F)c(OC)c3)C(=O)N3C[C@H](OC(C)C)C[C@H]3C(=O)NC3(CC(C)(C)C3)C(=O)N(C)[C@@H](C3CCCC3)C(=O)N(C)[C@H](C(=O)N(C)CC)CC(=O)N2C)N2CC/C=C\C[C@@H](C2=O)N(C)C(=O)CN(C)C1=O	Kd	0.048
CC[C@H](C)[C@@H]1NC(=O)[C@H](C2CCC2)N(C)C(=O)C[C@@H](C(=O)N(C)CC)N(C)C(=O)[C@H](C2CCCC2)N(C)C(=O)C2(CC(C)(C)C2)NC(=O)[C@@H]2C[C@H](C)CN2C(=O)[C@H](CCc2ccc(C(F)(F)F)c(OC)c2)NC(=O)CN(C)C(=O)[C@H](Cc2ccc(C(F)(F)F)cc2)N2CC/C=C\C[C@@H](C2=O)N(C)C(=O)CN(C)C1=O	Kd	0.19
CCC[C@H]1C(=O)N[C@@H](C(CC)CC)C(=O)N(C)CC(=O)N(C)[C@H]2C/C=C\CCN(C2=O)[C@@H](Cc2ccc(C)cc2)C(=O)N(C)CC(=O)N[C@@H](CCc2ccc(C(F)(F)F)c(Cl)c2)C(=O)N2C[C@H](OCC)C[C@H]2C(=O)NC2(CC(C)(C)C2)C(=O)N(C)[C@@H](C2CCCC2)C(=O)N(C)[C@H](C(=O)N(C)C)CC(=O)N1C	Kd	0.81

====

Listing: pKd of selected compounds
systemUnderTest: GDP-bound KRAS wild-type protein (Homo sapiens, UniProt P01116)
methodNotes: Binding to KRAS by surface plasmon resonance (SPR), Single Cycle Kinetics
measurementSetup: SPR Single Cycle Kinetics, GDP-bound KRAS wild-type protein, 1:1 binding model; read-out: KRAS KD
pKd: −log10 of the molar value. *1 amine or outer side, *2 acyl side, *3 side chain or, on linkers, in order; H or OH if unused. Where a SMILES comes first, the peptide text is derived from it. Bridges are numbered along the chain shown (N, C = ends). [ ]: non-standard residue; d: D form. The star is where a group is joined. hPhe(3-Cl-4-CF3) = N[C@@H](CCc1ccc(C(F)(F)F)c(Cl)c1)C(=O)O; NPrPhe(4-CF3) = CCCN[C@@H](Cc1ccc(C(F)(F)F)cc1)C(=O)O; X3 = CCCN([C@H](C(=O)[*:2])C1CCCC1)[*:1]; NMeGly(cPent) = CN[C@H](C(=O)O)C1CCCC1; Pro(4S-Me) = C[C@@H]1CN[C@H](C(=O)O)C1; NMeD = CN[C@@H](CC(=O)O)C(=O)O; NMeL = CN[C@@H](CC(C)C)C(=O)O; Morpholide = C1CN(*)CCO1; Ac5c = NC1(C(=O)O)CCCC1; Abu = CC[C@H](N)C(=O)O; Sar = CNCC(=O)O

compound	pKd
CCCN1C(=O)CN(C)C(=O)CN(C)C(=O)[C@H]([C@@H](C)CC)NC(=O)[C@H](CC(C)C)N(C)C(=O)C[C@@H](C(=O)N2CCOCC2)N(C)C(=O)[C@H](C2CCCC2)N(C)C(=O)C2(CCCC2)NC(=O)[C@@H]2CCCN2C(=O)[C@H](CCc2ccc(C(F)(F)F)c(Cl)c2)NC(=O)CN(C)C(=O)[C@@H]1C1CCCC1 [PP0061] ([NMeL]I[Sar][Sar][X3][Sar][hPhe(3-Cl-4-CF3)]P[Ac5c][NMeGly(cPent)][NMeD]-Morpholide; lactam N-11)	8.42
CC[C@H](C)[C@@H]1NC(=O)[C@H](CC)N(C)C(=O)C[C@@H](C(=O)N(C)C)N(C)C(=O)[C@H](C2CCCC2)N(C)C(=O)C2(CCC2)NC(=O)[C@@H]2C[C@H](N3CCC(F)(F)CC3)CN2C(=O)[C@H](CCc2cc(F)c(C(F)(F)F)c(F)c2)NC(=O)CN(C)C(=O)[C@H](Cc2ccc(C(F)(F)F)cc2)N2CCCCC[C@@H](C2=O)N(C)C(=O)CN(C)C1=O [PP0731]	8.80
CCCN1C(=O)CN(C)C(=O)CN(C)C(=O)[C@H](CC)NC(=O)[C@H](CC(C)C)N(C)C(=O)C[C@@H](C(=O)N2CCOCC2)N(C)C(=O)[C@H](C2CCCC2)N(C)C(=O)C2(CCCC2)NC(=O)[C@@H]2CCCN2C(=O)[C@H](CCc2ccc(C(F)(F)F)c(Cl)c2)NC(=O)CN(C)C(=O)[C@@H]1Cc1ccc(C(F)(F)F)cc1 [PP0248] ([NMeL][Abu][Sar][Sar][NPrPhe(4-CF3)][Sar][hPhe(3-Cl-4-CF3)]P[Ac5c][NMeGly(cPent)][NMeD]-Morpholide; lactam N-11)	8.96
CC[C@H](C)[C@@H]1NC(=O)[C@H](C)N(C)C(=O)C[C@@H](C(=O)N2CCOCC2)N(C)C(=O)[C@H](C2CCCC2)N(C)C(=O)C2(CCCC2)NC(=O)[C@@H]2CCCN2C(=O)[C@H](CCc2cc(F)c(C(F)(F)F)c(F)c2)NC(=O)CN(C)C(=O)[C@H](Cc2ccc(C(F)(F)F)cc2)N2CCCC[C@@H](C2=O)N(C)C(=O)CN(C)C1=O [PP0549]	10.21
CCO[C@@H]1C[C@H]2C(=O)NC3(CC(C)(C)C3)C(=O)N(C)[C@@H](CC(C)(C)C)C(=O)N(C)[C@H](C(=O)N(C)C)CC(=O)N(C)[C@@H](COC)C(=O)N[C@@H]([C@@H](C)CC)C(=O)N(C3CC3)CC(=O)N(C)[C@H]3C/C=C\CCN(C3=O)[C@@H](Cc3ccc(C(F)(F)F)cc3)C(=O)N(C)CC(=O)N[C@@H](CCc3cc(F)c(C(F)(F)F)c(F)c3)C(=O)N2C1 [PP2744]	9.64
CCO[C@@H]1C[C@H]2C(=O)NC3(CC(C)(C)C3)C(=O)N(C)[C@@H](C3CCCC3)C(=O)N(C)[C@H](C(=O)N3CCCC3)CC(=O)N(C)[C@H]3CCCC/C=C/c4ccc(cc4)C[C@@H](C(=O)N(C)CC(=O)N[C@@H](CCc4ccc(Cl)c(Cl)c4)C(=O)N2C1)N1CC/C=C\C[C@@H](C1=O)N(C)C(=O)CN(C)C(=O)[C@H]([C@@H](C)CC)NC3=O [PP2593]	9.82
CCC(CC)[C@H]1C(=O)N(C)[C@H](C(=O)N(C)C)CC(=O)N(C)[C@@H](COC)C(=O)N[C@@H]([C@@H](C)CC)C(=O)N(C2CC2)CC(=O)N(C)[C@H]2C/C=C\CCN(C2=O)[C@@H](Cc2ccc(C)cc2)C(=O)N(C)CC(=O)N[C@@H](CCc2cc(F)c(C(F)(F)F)c(F)c2)C(=O)N2C[C@H](OC3CCCC3)C[C@H]2C(=O)NC2(CC(C)(C)C2)C(=O)N1C [PP2619]	8.92
CCO[C@@H]1C[C@H]2C(=O)NC3(CCC3)C(=O)N(C)[C@@H](C3CCCC3)C(=O)N(C)[C@H](C(=O)N(C)C)CC(=O)N(C)[C@@H](CC3CCCC3)C(=O)N[C@@H]([C@@H](C)CC)C(=O)N(C)CC(=O)N(C)[C@H]3C/C=C\CCN(C3=O)[C@@H](Cc3ccc(C)cc3)C(=O)N(C)CC(=O)N[C@@H](CCc3cc(F)c(CC)c(OC)c3)C(=O)N2C1 [PP2674]	9.30
CCCN1C(=O)CN(C)C(=O)CNC(=O)[C@H]([C@@H](C)CC)NC(=O)[C@H](CC(C)C)N(C)C(=O)C[C@@H](C(=O)N2CCOCC2)N(C)C(=O)[C@H](C2CCCC2)N(C)C(=O)C2(CCCC2)NC(=O)[C@@H]2C[C@H](C)CN2C(=O)[C@H](CCc2ccc(C(F)(F)F)c(Cl)c2)NC(=O)CN(C)C(=O)[C@@H]1Cc1ccc(C(F)(F)F)cc1 [PP0449] ([NMeL]IG[Sar][NPrPhe(4-CF3)][Sar][hPhe(3-Cl-4-CF3)][Pro(4S-Me)][Ac5c][NMeGly(cPent)][NMeD]-Morpholide; lactam N-11)	9.46
CCO[C@@H]1C[C@H]2C(=O)NC3(CCC3)C(=O)N(C)[C@@H](C3CCCC3)C(=O)N(C)[C@H](C(=O)N(C)C)CC(=O)N(C)[C@@H](CC3CCCC3)C(=O)N[C@@H]([C@@H](C)CC)C(=O)N(C)CC(=O)N(C)[C@H]3C/C=C\CCN(C3=O)[C@@H](Cc3ccc(C)cc3)C(=O)N(C)CC(=O)N[C@@H](CCc3cc(Cl)c(C(F)(F)F)c(Cl)c3)C(=O)N2C1 [PP2679]	10.00
